Details: in isopropanol, 300.65 K
QUANTITY_MEASURED: solubility (mole fraction)

- c1ccc(-c2nnn[nH]2)cc1: 0.0198

----------
Settings: in acetonitrile, 295.65 K
QUANTITY_MEASURED: solubility (mole fraction)

- c1ccc(-c2nnn[nH]2)cc1: 0.0028

----------
Conditions: in DMSO, 295.65 K
QUANTITY_MEASURED: solubility (mole fraction)

- c1ccc(-c2nnn[nH]2)cc1: 0.291

----------
Conditions: in ethanol, 293.15 K
QUANTITY_MEASURED: solubility (mole fraction)

* c1ccc(-c2nnn[nH]2)cc1 | 0.0181

----------
Settings: in DMF, 305.65 K
QUANTITY_MEASURED: solubility (mole fraction)

* c1ccc(-c2nnn[nH]2)cc1 | 0.322
